- testProtocol: NCI Yeast Anticancer Drug Screen. Data for the rad50 strain (AID 155)
- assaySetup: S. cerevisiae rad50 strain growth inhibition; at 5.0 µM (retest, dose inferred, filed as 0.5)
The panel holds about 79,000 compounds, 15% with a hit somewhere; the sample as a whole holds those more often. The source made the active and inactive calls. Rule as the data show it: active = growth inhibition above about 70%; inactive = the rest.
// classify into active, inactive

Observe how each entry below is paired with its result.
Q: Dear all, I need the recorded test outcome for COc1cccc(NC(=O)c2c(SC)c(C#N)c(=O)n(N)c2N)c1 , thank you.
Ans: inactive

Q: Dear all, I need the recorded test outcome for O=[N+]([O-])c1ccc(C(Br)c2ccc([N+](=O)[O-])cc2)cc1 , thank you.
Ans: inactive

Q: Dear all, I need the recorded test outcome for CSC(SC)=C(C#N)C(=O)Nc1cccc(Cl)c1 , thank you.
Ans: active

Q: Dear all, I need the recorded test outcome for Nc1ccc(-c2ccc(N)c(S(=O)(=O)O)c2)cc1S(=O)(=O)O , thank you.
Ans: inactive

Q: Dear all, I need the recorded test outcome for COc1cccc(NC(=O)C(C#N)=C(SC)SC)c1 , thank you.
Ans: inactive

Q: Dear all, I need the recorded test outcome for COC(=O)c1ccc(Cl)c(NN)c1 , thank you.
Ans: inactive

Q: Dear all, I need the recorded test outcome for CC(C)N=C(N)/N=C(\N)Nc1ccc2ccc3ccccc3c2c1 , thank you.
Ans: inactive

Q: Dear all, I need the recorded test outcome for Nc1nc(-c2ccccc2)nc(N)c1N=O , thank you.
Ans: inactive

Next:
Q: Dear all, I need the recorded test outcome for OC(Cc1cc(CC(O)(C(F)(F)F)C(F)(F)F)nc(CC(O)(C(F)(F)F)C(F)(F)F)c1)(C(F)(F)F)C(F)(F)F , thank you.
Ans: inactive

Q: Dear all, I need the recorded test outcome for Nc1cc(-c2ccccc2)ccc1O , thank you.
Ans: inactive
